assayed_target: Recombinant human cathepsin A (Homo sapiens)
Construct: Recombinant human cathepsin A (residues 29-480, with a C-terminal 10-His tag); 10-His (C); purchased R&D Systems 1049-SE
procedure_summary: Cathepsin A inhibitory activity
Assay type: biochemical
details: number printed in place of a class symbol; unit from footnote (2); read-out: Activity (2): Cathepsin A inhibitory activity, IC50 printed as a numeric bound
reported_property: IC50

• CC(C)[C@@](C)(O)COc1cc(C(=O)N[C@@H](CC(=O)O)c2ccccc2Cl)nn1-c1ccccc1F [Example 861] = > 30 µM

* * *

assayed_target: Recombinant human cathepsin A (Homo sapiens, UniProt P10619)
Construct: Recombinant human cathepsin A (residues 29-480, with a C-terminal 10-His tag); 10-His (C); purchased R&D Systems 1049-SE
Sequence (P10619 29-312 limits assumed): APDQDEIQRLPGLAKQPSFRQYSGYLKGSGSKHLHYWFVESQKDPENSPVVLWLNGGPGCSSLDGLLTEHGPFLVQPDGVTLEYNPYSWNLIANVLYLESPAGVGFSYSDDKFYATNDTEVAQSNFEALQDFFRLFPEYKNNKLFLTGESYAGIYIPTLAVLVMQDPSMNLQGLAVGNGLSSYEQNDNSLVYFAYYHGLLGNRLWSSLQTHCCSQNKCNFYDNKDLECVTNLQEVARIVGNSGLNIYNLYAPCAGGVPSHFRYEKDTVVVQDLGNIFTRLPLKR
Sequence (P10619 327-480 limits assumed): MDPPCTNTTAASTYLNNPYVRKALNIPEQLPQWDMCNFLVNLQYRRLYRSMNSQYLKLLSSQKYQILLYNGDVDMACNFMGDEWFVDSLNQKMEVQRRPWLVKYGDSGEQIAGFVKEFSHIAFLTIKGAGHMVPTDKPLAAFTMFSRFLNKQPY
procedure_summary: Cathepsin A inhibitory activity
Type: biochemical
details: recombinant human cathepsin A; read-out: Activity (2): Cathepsin A inhibitory activity, IC50 class
reported_property: IC50

* COc1ccc([C@H](CC(=O)O)NC(=O)c2cc(O)n(-c3cccc(Cl)c3)n2)cc1 | 1000 to 30000 nM
* COc1ccc([C@H](CC(=O)O)NC(=O)c2cc(O)n(-c3ccc(Cl)cc3)n2)cc1 | 1000 to 30000 nM
* Cc1ccc(F)cc1C(CC(=O)O)NC(=O)c1cc(O)n(-c2ccc(F)cc2)n1 (centres unmarked) | 100 to 1000 nM
* Cc1ccc(F)cc1C(CC(=O)O)NC(=O)c1cc(O)n(-c2ccccc2F)n1 (centres unmarked) | < 100 nM
* O=C(O)CC(NC(=O)c1cc(O)n(-c2ccccc2Cl)n1)c1cccc2c1OC(F)(F)O2 (centres unmarked) | 100 to 1000 nM
* Cc1ccc([C@H](CC(=O)O)NC(=O)c2cc(O)n(-c3ccc(F)cc3)n2)cc1 | 100 to 1000 nM
* COc1cc(C(=O)N[C@@H](CC(=O)NCc2ccncc2)c2ccccc2C)nn1-c1ccccc1F | 1000 to 30000 nM
* Cc1ccccc1[C@H](CC(=O)O)NC(=O)c1cc(O)n(Cc2ccccc2)n1 | 100 to 1000 nM

src = patent US8664257B2
